Origin of the recorded values: ChEMBL document CHEMBL4406884

# Assay target: D(3) dopamine receptor (Homo sapiens, UniProt P35462)
# Sequence (P35462 whole entry): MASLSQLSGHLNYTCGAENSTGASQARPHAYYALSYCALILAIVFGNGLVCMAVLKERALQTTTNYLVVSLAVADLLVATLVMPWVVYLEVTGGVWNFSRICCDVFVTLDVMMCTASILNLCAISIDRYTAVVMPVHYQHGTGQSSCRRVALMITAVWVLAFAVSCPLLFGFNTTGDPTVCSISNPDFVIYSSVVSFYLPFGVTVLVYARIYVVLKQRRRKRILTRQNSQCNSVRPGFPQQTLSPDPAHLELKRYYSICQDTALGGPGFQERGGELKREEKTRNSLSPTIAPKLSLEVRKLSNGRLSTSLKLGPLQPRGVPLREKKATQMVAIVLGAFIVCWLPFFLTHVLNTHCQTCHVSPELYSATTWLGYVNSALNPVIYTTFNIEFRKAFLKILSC
Endpoint: Ki

Ki on D(3) dopamine receptor (Homo sapiens, UniProt P35462) for O=C1c2ccccc2C(Cc2ccnnc2)(Cc2c(F)cncc2F)c2ccccc21 is > 10 µM

* * *

# Assay target: UniProt:P08684
# Sequence (P08684 whole entry): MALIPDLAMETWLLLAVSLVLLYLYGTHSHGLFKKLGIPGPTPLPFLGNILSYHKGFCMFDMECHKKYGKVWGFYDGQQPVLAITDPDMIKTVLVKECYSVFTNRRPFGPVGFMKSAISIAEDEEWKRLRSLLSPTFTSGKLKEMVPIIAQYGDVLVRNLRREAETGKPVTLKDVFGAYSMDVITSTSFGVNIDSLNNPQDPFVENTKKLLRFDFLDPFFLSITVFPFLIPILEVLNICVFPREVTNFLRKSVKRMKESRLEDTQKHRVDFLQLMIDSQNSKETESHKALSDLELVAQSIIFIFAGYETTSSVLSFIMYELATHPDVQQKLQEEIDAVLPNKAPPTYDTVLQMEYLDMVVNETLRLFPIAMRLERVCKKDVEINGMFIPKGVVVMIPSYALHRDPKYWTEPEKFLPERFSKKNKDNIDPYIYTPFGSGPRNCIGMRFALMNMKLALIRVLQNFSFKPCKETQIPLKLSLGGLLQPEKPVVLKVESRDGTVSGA
# Test name: Inhibition of CYP3A4 (unknown origin) at 50 uM using DBOMF as substrate measured for each min for 6 mins by fluorescence based assay relative to control
# Format: ADME
# Condition parameters: probe DBOMF
Endpoint: inhibition at 0.1 h, 50 µM (%)
One number for each entry, in %.

Below is a list of compounds. For each, state its recorded inhibition at 0.1 h, 50 µM.
1. O=C1c2ccccc2C(Cc2c(F)cncc2F)(Cc2c(F)cncc2F)c2ccccc21
2. Cc1cc(CC2(Cc3ccnc(C)c3)c3ccccc3C(=O)c3ccccc32)ccn1
3. O=C1c2ccccc2C(Cc2ccnnc2)(Cc2ccnnc2)c2ccccc21
4. O=C1c2ccccc2C(Cc2ccnc(F)c2)(Cc2ccnc(F)c2)c2ccccc21

A.
1: 97; 2: 92; 3: 28; 4: 82

For record O=C1c2ccccc2C(Cc2ccnc(C(F)(F)F)c2)(Cc2ccnc(C(F)(F)F)c2)c2ccccc21 the listed inhibition at 0.1 h, 50 µM is 95

* * *

Give inhibition for every item shown.
# Assay target: Voltage-gated potassium channel, KQT; KCNQ2(Kv7.2)/KCNQ3(Kv7.3) (Homo sapiens) (UniProt O43526+O43525)
# Test name: Inhibition of Kv7.2/7.3 in human tsA201 cells assessed as effect on channel currents at -60 mV holding potential at 1.5 uM by whole cell patch clamp assay relative to control
# Assay type: cell-based
One number for each entry, in %.

Below, 5 compounds whose answers are already recorded.
{"columns": ["Input smiles", "inhibition [%]"],
 "data": [
  ["O=C1c2ccccc2C(Cc2ccnc(C(F)(F)F)c2)(Cc2ccnc(C(F)(F)F)c2)c2ccccc21", 6],
  ["O=C1c2ccccc2C(Cc2ccnnc2)(Cc2c(F)cncc2F)c2ccccc21", 73],
  ["Cc1cc(CC2(Cc3ccnc(C)c3)c3ccccc3C(=O)c3ccccc32)ccn1", 33],
  ["O=C1c2ccccc2C(Cc2ccnnc2)(Cc2ccnnc2)c2ccccc21", 12],
  ["O=C1c2ccccc2C(Cc2ccncc2)(Cc2ccncc2)c2ccccc21", 81]
]}

Below is a list of compounds. For each, state its recorded inhibition.
1. O=C1c2ccccc2C(Cc2ccnc(F)c2)(Cc2ccnc(F)c2)c2ccccc21
2. O=C1c2ccccc2C(Cc2c(F)cncc2F)(Cc2c(F)cncc2F)c2ccccc21

A.
[31, 65]
